Reference source for all entries: patent US20240309103A1

Kindly state pKd for each of the entries shown.
# system-tested: T1, mfNPR1-mFc:hBNP complex (monkey; human, UniProt P16860 103-134)
# T1 construct: Receptor-Fc pre-complexed with 10-fold hBNP
# method-notes: SPR Biacore, mAb captured by anti-human Fc, 37C
Answer as the number alone; pKd is minus log10 of concentration in mol/L.

Exercise: Would you kindly share the measured pKd for mAb25497 (antibody, human IgG4, V domains shown) VH: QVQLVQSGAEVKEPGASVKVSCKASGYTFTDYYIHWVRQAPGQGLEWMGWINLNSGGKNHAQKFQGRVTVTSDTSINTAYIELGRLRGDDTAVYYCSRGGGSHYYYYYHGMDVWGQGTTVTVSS VL: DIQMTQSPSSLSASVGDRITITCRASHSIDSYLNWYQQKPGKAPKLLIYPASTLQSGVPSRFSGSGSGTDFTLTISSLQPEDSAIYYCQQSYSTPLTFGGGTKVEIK ?
Solution: 8.54

Exercise: Query mAb25502 (antibody, human IgG4, V domains shown) VH: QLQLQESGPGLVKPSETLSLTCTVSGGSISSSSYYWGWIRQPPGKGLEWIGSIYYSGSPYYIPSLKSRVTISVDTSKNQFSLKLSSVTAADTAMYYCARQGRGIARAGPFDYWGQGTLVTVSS VL: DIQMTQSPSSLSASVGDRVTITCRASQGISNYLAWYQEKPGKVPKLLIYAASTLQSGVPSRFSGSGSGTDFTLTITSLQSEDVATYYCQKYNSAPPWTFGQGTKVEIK next
Solution: 8.25

Exercise: Query mAb22809 (antibody, human IgG4, V domains shown) VH: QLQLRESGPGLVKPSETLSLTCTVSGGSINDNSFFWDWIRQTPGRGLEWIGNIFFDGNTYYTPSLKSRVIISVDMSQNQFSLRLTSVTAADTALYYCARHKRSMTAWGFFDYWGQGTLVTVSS VL: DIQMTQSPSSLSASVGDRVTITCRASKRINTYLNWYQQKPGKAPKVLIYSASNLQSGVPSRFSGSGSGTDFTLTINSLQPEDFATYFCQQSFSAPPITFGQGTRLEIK next
Solution: 8.37
